Below, each of the molecules is paired with its reported Efficacy value.
Test system: wild-type ZIKV (Ugandan MR766 strain) in Vero cells
Assay: ZIKV cytopathic effect (CPE) inhibition qHTS assay, CellTiter-Glo readout
Assay type: cell-based, Zika virus
// return just the number, without any unit appended

# annotated cases, reported Efficacy shown
molecule: C/C(=C\CCC(C)CCO)C(=O)OC1(C)CCC2C(C(=O)O)=COC(OC3OC(CO)C(O)C(O)C3O)C21 (stereo not shown)
Efficacy: -68.93

molecule: CC(C)C[C@H](CO)Nc1nc(S[C@@H](C)c2ccccc2)nc2nc(N)sc12
Efficacy: -23.549

molecule: C[C@@H]1C[C@@H]([C@@H](O)C(C)(C)O)O[C@H]2C[C@@]3(C)C(=C12)C[C@H](O)[C@H]1[C@@]2(C)CCC(=O)C(C)(C)C2CC[C@@]13C (stereo partly shown)
Efficacy: -67.591

Incoming: Item `Cc1cc(C)c2nc(-c3ccccn3)cc(C(=O)Nc3ccc([S+](=O)([O-])Nc4onc(C)c4C)cc3)c2c1` : provide Efficacy
Outgoing: -23.798

Incoming: Give the reported Efficacy for this molecule. `COc1cc(N(C)CCN(C)C)c(N)cc1Nc1nccc(-c2cn(C)c3ccccc23)n1`
Outgoing: -48.353

Incoming: Report Efficacy, nothing else, for this molecule: CCOC(=O)C1=C(N)Oc2ccc(Br)cc2C1C(C#N)C(=O)OCC (stereo not shown) [NCGC00025207-16]
Outgoing: -33.191

Incoming: # return recorded Efficacy for entry `CC(=O)OC[C@]12C[C@H](OC(C)=O)C(C)=C[C@H]1O[C@@H]1[C@H](O)[C@@H](O)[C@@]2(C)[C@]12CO2`
Outgoing: -39.385

Incoming: Let me know recorded Efficacy for `C=C(C)C(=O)O[C@H]1[C@H]2C(=C)C(=O)O[C@@H]2C[C@@H](C)[C@@H]2O[C@@H]2C(=O)[C@](C)(O)[C@@H]1OC(=O)C(=C)C` , thanks.
Outgoing: -35.91

Incoming: Please report Efficacy for the following molecule: `C=C(C)C(=O)O[C@H]1[C@H]2C(=C)C(=O)O[C@@H]2C[C@@H](C)/C=C\C(=O)[C@](C)(O)[C@@H]1OC(C)=O`
Outgoing: -39.663

Incoming: Find the measured Efficacy of C[C@@H]1CCC2C(C)(C)[C@H](O)CC[C@]2(C)[C@@]12Cc1c(O)cc3c(c1O2)CN(CCO)C3=O (stereo partly shown) and report it.
Outgoing: -75.159

Incoming: Look up and state reported Efficacy for `C[C@H]1[C@H](C)CC[C@]2(C(=O)O)CC[C@]3(C)C(=CC[C@@H]4[C@@]5(C)C[C@@H](O)[C@H](O)[C@@](C)(CO)[C@@H]5CC[C@]43C)[C@H]12`
Outgoing: -33.569

Incoming: Report Efficacy for `C[C@@]1(O)[C@H](O)[C@@H](CO)O[C@H]1n1cnc2c(=O)[nH]c(N)nc21`
Outgoing: -27.977

Incoming: Please supply the value of reported Efficacy for the item CC1=CC2(O)/C=C/C(C)(O)C(O)C(O)/C=C/C(=O)OC23C(=O)NC(CC(C)C)C3C1C (stereo not shown)
Outgoing: -74.853

====

Test system: wild-type ZIKV (Ugandan MR766 strain) in Vero cells
Test: ZIKV cytopathic effect (CPE) inhibition qHTS assay, CellTiter-Glo readout
Format: cell-based, Zika virus
Conditions: difference between neutral response and maximum compound response
Property: Efficacy; scope: individual molecules
Reply: number alone, nothing else.

molecule: C[C@H]1CC[C@@]2(OC1)O[C@H]1CC3[C@@H]4CC[C@@H]5C[C@@H](O[C@@H]6O[C@H](CO)[C@@H](O[C@@H]7O[C@@H](C)[C@H](O)[C@@H](O)[C@H]7O)[C@H](O)[C@H]6O[C@@H]6O[C@H](CO)[C@@H](O)[C@H](O)[C@H]6O)CC[C@]5(C)C4CC[C@]3(C)[C@H]1[C@@H]2C (some centres unmarked)
Efficacy: -63.699
//
molecule: CCC(C)C(=O)OC1CC(O)C23C4OCC5(C(O)CC2C1(C)C(O)O4)C3C(=O)CC1(C)C(c2ccoc2)CC2OC215 (centres unmarked)
Efficacy: -29.737

Incoming: Specify measured Efficacy for C[C@H]1CC[C@@]2(OC1)O[C@H]1CC3[C@@H]4CC[C@@H]5C[C@@H](O[C@@H]6O[C@H](CO)[C@@H](O[C@@H]7O[C@H](CO[C@@H]8OC[C@@H](O)[C@H](O)[C@H]8O)[C@@H](O[C@@H]8O[C@H](CO)[C@H](O)[C@H](O)[C@H]8O)[C@H](O)[C@H]7O)[C@H](O)[C@H]6O)CC[C@]5(C)C4CC[C@]3(C)[C@H]1[C@@H]2C (some centres unmarked) .
Outgoing: -25.029

Incoming: Dear colleague, please send me the reported Efficacy for COC(=O)[C@]12CCCC(C)(C)C1CCc1cc(C(C)C)c(O)c(O)c12 (some centres unmarked) when you can.
Outgoing: -21.701

Incoming: Give the value of Efficacy reported for the following: COC1CCCC(C)OC(=O)Cc2cc(O)cc(O)c2C(=O)C1 (centres unmarked)
Outgoing: -54.826

All values here come from paper PMC8765781.
